The measurements presented in this section are drawn from ChEMBL document CHEMBL1811869.

System: Human immunodeficiency virus 1
Assay: Antiviral activity against Human immunodeficiency virus 1 infected in human C8166 cells assessed as inhibition of virus-induced cytopathic effect
Assay type: functional, organism-based
Settings: Human immunodeficiency virus 1, C8166
pEC50: −log10 of the molar value.
Record Satisfied whenever pEC50 is at 8 or higher; record Not satisfied when lower.

Reference set, count: 4
COMPOUND_STRUCTURE	TEST_SYSTEM	CLASSIFICATION
CC(=O)O[C@@]12C[C@@H](C)[C@@]3(O)[C@@H](C=C(CO)C[C@]4(O)C(=O)C(C)=C[C@@H]34)[C@@H]1C2(C)C	Human immunodeficiency virus 1	Satisfied
CC(=O)O[C@@]12C[C@@H](C)[C@@]3(O)[C@@H](C=C(CO[C@@H]4O[C@H](COC(=O)c5cc(O)c(O)c(O)c5)[C@@H](O)[C@H](O)[C@H]4O)C[C@]4(O)C(=O)C(C)=C[C@@H]34)[C@@H]1C2(C)C	Human immunodeficiency virus 1	Not satisfied
CC(=O)OCC1=C[C@H]2[C@@H]3C(C)(C)[C@]3(OC(C)=O)C[C@@H](C)[C@]2(O)[C@@H]2C=C(C)C(=O)[C@@]2(O)C1	Human immunodeficiency virus 1	Satisfied
CC(=O)O[C@@]12[C@H](O)[C@@H](C)[C@@]3(O)[C@@H](C=C(CO[C@@H]4O[C@H](CO)[C@@H](O)[C@H](O)[C@H]4O)C[C@]4(O)C(=O)C(C)=C[C@@H]34)[C@@H]1C2(C)C	Human immunodeficiency virus 1	Not satisfied

# evaluate next
Is pEC50 for CC(=O)O[C@@]12C[C@@H](C)[C@@]3(O)[C@@H](C=C(CO[C@@H]4O[C@H](CO)[C@@H](O)[C@H](O)[C@H]4O)C[C@]4(O)C(=O)C(C)=C[C@@H]34)[C@@H]1C2(C)C at or above 8?
Not satisfied

---

In this section we review reported CC50 values for a set of compounds.
Test: Cytotoxicity against human C8166 cells by MTT assay
Assay type: cell-based

COMPOUND	CC50
CC(=O)O[C@@]12[C@H](O)[C@@H](C)[C@@]3(O)[C@@H](C=C(CO[C@@H]4O[C@H](CO)[C@@H](O)[C@H](O)[C@H]4O)C[C@]4(O)C(=O)C(C)=C[C@@H]34)[C@@H]1C2(C)C [FISCHEROSIDES C]	> 350 nM

Name the recorded CC50 of the item Cc1cn([C@H]2C[C@H](N=[N+]=[N-])[C@@H](CO)O2)c(=O)[nH]c1=O [ZIDOVUDINE] in your answer.
4070 nM

Name the recorded CC50 of the item CC(=O)O[C@@]12C[C@@H](C)[C@@]3(O)[C@@H](C=C(CO)C[C@]4(O)C(=O)C(C)=C[C@@H]34)[C@@H]1C2(C)C [PROSTRATIN] in your answer.
> 510 nM

Name the recorded CC50 of the item CC(=O)OCC1=C[C@H]2[C@@H]3C(C)(C)[C@]3(OC(C)=O)C[C@@H](C)[C@]2(O)[C@@H]2C=C(C)C(=O)[C@@]2(O)C1 in your answer.
110 nM

Name the recorded CC50 of the item CC(=O)O[C@@]12C[C@@H](C)[C@@]3(O)[C@@H](C=C(CO[C@@H]4O[C@H](CO)[C@@H](O)[C@H](O)[C@H]4O)C[C@]4(O)C(=O)C(C)=C[C@@H]34)[C@@H]1C2(C)C [FISCHEROSIDES A] in your answer.
> 360 nM

Name the recorded CC50 of the item CC(=O)O[C@@]12C[C@@H](C)[C@@]3(O)[C@@H](C=C(CO[C@@H]4O[C@H](COC(=O)c5cc(O)c(O)c(O)c5)[C@@H](O)[C@H](O)[C@H]4O)C[C@]4(O)C(=O)C(C)=C[C@@H]34)[C@@H]1C2(C)C [FISCHEROSIDES B] in your answer.
> 280 nM
